Each recorded value in this set is attributed to PubChem BioAssay AID1159580.

Protocol notes: chemical genetic growth profiling, strain panel (AID 1159580);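 note: tested at 20 µM; growth read once vehicle control cultures reached saturation at 30 °C; 1 = growth at the plate median or of vehicle wells; lower values mean less growth of the strain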
Condition set: S. cerevisiae deletion strains, growth OD, locus YBR023C, strain chs3, active compounds read low
Among all 5,500 compounds or so, about 2,000 (36%) were called active. Another 18% or so got no clear call; they are omitted. The list shows a part of the results.
Reported property: normalized growth

                                   molecule  experimental_result
0     CC(C)=CCC/C(C)=C/COc1ccc2ccc(=O)oc2c1                0.982
1          CC(C)=CCOc1c2occc2cc2ccc(=O)oc12                0.864
2  O=C(/C=C/C(=O)Oc1ccccc1C(=O)O)Oc1ccccc1C(=O)O                0.994
3                     COc1cc2ccc(=O)oc2cc1O                0.958
4  C[N+]1(C)CCc2cc3c(cc2[C@H]1C1OC(=O)c2c1ccc1c2OCO1)OCO3 (stereo partly specified)                 1.01
5                   Cc1nccc2c1[nH]c1ccccc12                0.974
